Entries and their MIC E. faecalis (G+)
# Tested on: Enterococcus faecalis
# MEASUREMENT_DESCRIPTION: Minimum inhibitory concentration, E. faecalis
# Type: cell-based, Enterococcus faecalis ATCC 29212
# TEST_PARAMETERS: Mueller-Hinton Broth, 37° C., 72 h
Express it in µM; write the number only.

CCCCCCCCCCCCCCCC[N+](C)(C)Cc1cc(C[N+](C)(C)C)cc(C[N+](C)(C)CCCCCCCCCCCCCCCC)c1.[Br-].[Br-].[Br-] | 32
CCCCCCCCCCCCCC[N+](C)(C)Cc1cc(C[N+](C)(C)C)cc(C[N+](C)(C)C)c1.[Br-].[Br-].[Br-] | 31
CCCCCCCCCC[N+](C)(C)Cc1cc(C[N+](C)(C)C)cc(C[N+](C)(C)CCCCCCCCCC)c1.[Br-].[Br-].[Br-] | 8

Item under review: CCCCCCCCCCCCCCCC[N+](C)(C)Cc1cc(C[n+]2ccccc2)cc(C[N+](C)(C)CCCCCCCCCCCCCCCC)c1.[Br-].[Br-].[Br-] . Reported MIC E. faecalis (G+)?
32

Same question, CCCCCCCCCC[N+](C)(C)Cc1cc(C[N+](C)(C)C)cc(C[N+](C)(C)C)c1.[Br-].[Br-].[Br-] this time
250

Same question, CCCCCCCCCCCC[N+](C)(C)Cc1cc(C[N+](C)(C)C)cc(C[N+](C)(C)CCCCCCCCCCCC)c1.[Br-].[Br-].[Br-] this time
2

Same question, CCCCCCCCCCCCCC[N+](C)(C)Cc1cc(C[n+]2ccccc2)cc(C[N+](C)(C)CCCCCCCCCCCCCC)c1.[Br-].[Br-].[Br-] this time
4

Same question, CCCCCCCCCCCCCCCC[N+](C)(C)Cc1cc(C[N+](C)(C)C)cc(C[N+](C)(C)C)c1.[Br-].[Br-].[Br-] this time
8

----------
# System: Staphylococcus aureus
# MEASUREMENT_DESCRIPTION: Minimum inhibitory concentration, S. aureus
# Assay type: cell-based, Staphylococcus aureus subsp. aureus ATCC 29213
# TEST_PARAMETERS: Mueller-Hinton Broth, 37° C., 72 h
MEASURED_ATTRIBUTE: MIC S. aureus (G+) (µM)
Express it in µM; write the number only.

Some entries whose results are on file:
CCCCCCCCCCCCCCCCCC[N+](C)(C)Cc1cc(C[N+](C)(C)C)cc(C[N+](C)(C)C)c1.[Br-].[Br-].[Br-] | 16
CCCCCCCCCCCCCC[N+](C)(C)Cc1cc(C[n+]2ccccc2)cc(C[N+](C)(C)CCCCCCCCCCCCCC)c1.[Br-].[Br-].[Br-] | 4
CCCCCCCCCC[N+](C)(C)Cc1cc(C[N+](C)(C)C)cc(C[N+](C)(C)CCCCCCCCCC)c1.[Br-].[Br-].[Br-] | 16

Item under review: CCCCCCCCCCCCCCCCCCCC[N+](C)(C)Cc1cc(C[N+](C)(C)C)cc(C[N+](C)(C)C)c1.[Br-].[Br-].[Br-] . Reported MIC S. aureus (G+)?
16

Same question, CCCCCCCCCCCCCC[N+](C)(C)Cc1cc(C[N+](C)(C)C)cc(C[N+](C)(C)C)c1.[Br-].[Br-].[Br-] this time
63

Same question, CCCCCCCCCCCCCCCC[N+](C)(C)Cc1cc(C[n+]2ccccc2)cc(C[N+](C)(C)CCCCCCCCCCCCCCCC)c1.[Br-].[Br-].[Br-] this time
32

Same question, CCCCCCCCCCCC[N+](C)(C)Cc1cc(C[N+](C)(C)C)cc(C[N+](C)(C)CCCCCCCCCCCC)c1.[Br-].[Br-].[Br-] this time
2

----------
# MEASUREMENT_DESCRIPTION: Isothermal titration calorimetry: critical aggregation concentration and thermodynamics of aggregation
# Format: physicochemical
# TEST_PARAMETERS: 37° C.; single-tailed M-1,1,n series
Entries and their −TΔSagg
Express it in kcal/mol; write the number only.

Some entries whose results are on file:
CCCCCCCCCCCCCCCC[N+](C)(C)Cc1cc(C[N+](C)(C)C)cc(C[N+](C)(C)C)c1.[Br-].[Br-].[Br-] [Compound S5] | -2.03
CCCCCCCCCCCCCCCCCCCCCC[N+](C)(C)Cc1cc(C[N+](C)(C)C)cc(C[N+](C)(C)C)c1.[Br-].[Br-].[Br-] [Compound S8] | 1.22
CCCCCCCCCCCCCC[N+](C)(C)Cc1cc(C[N+](C)(C)C)cc(C[N+](C)(C)C)c1.[Br-].[Br-].[Br-] [Compound S4] | -2.39
CCCCCCCCCCCCCCCCCC[N+](C)(C)Cc1cc(C[N+](C)(C)C)cc(C[N+](C)(C)C)c1.[Br-].[Br-].[Br-] [Compound S6] | -0.574

As a next step, examine the compound that follows.
Item under review: CCCCCCCCCCCCCCCCCCCC[N+](C)(C)Cc1cc(C[N+](C)(C)C)cc(C[N+](C)(C)C)c1.[Br-].[Br-].[Br-] [Compound S7] . Reported −TΔSagg?
0.382

----------
# MEASUREMENT_DESCRIPTION: Isothermal titration calorimetry: critical aggregation concentration and thermodynamics of aggregation
# Format: physicochemical
# TEST_PARAMETERS: ITC, 37° C., pure water; double-tailed M-P and M-1 series
# Protocol: Isothermal titration calorimetry (ITC) was used to determine the critical aggregation concentration (CAC) and the thermodynamic parameters at 37° C. associated with aggregate formation for each double-tailed amphiphile for the M-P and M-1 series, as shown in Table 1. A Nano ITC was used to measure the heat change associated with the deaggregation of amphiphiles via power compensation. […] In FIG. 6, inset, CAC is determined by calculating the first derivative the heat curve. […]
MEASURED_ATTRIBUTE: ΔHmic (kJ/mol)
Express it in kJ/mol; write the number only.

Item under review: CCCCCCCCCCCC[N+](C)(C)Cc1cc(C[N+](C)(C)C)cc(C[N+](C)(C)CCCCCCCCCCCC)c1.[Br-].[Br-].[Br-] . Reported ΔHmic?
-26

Same question, CCCCCCCCCC[N+](C)(C)Cc1cc(C[N+](C)(C)C)cc(C[N+](C)(C)CCCCCCCCCC)c1.[Br-].[Br-].[Br-] this time
-15

Same question, CCCCCCCCCCCCCC[N+](C)(C)Cc1cc(C[n+]2ccccc2)cc(C[N+](C)(C)CCCCCCCCCCCCCC)c1.[Br-].[Br-].[Br-] this time
-38

----------
# MEASUREMENT_DESCRIPTION: Isothermal titration calorimetry: critical aggregation concentration and thermodynamics of aggregation
# Type: physicochemical
# TEST_PARAMETERS: ITC, 37° C.
# Method: Isothermal titration calorimetry (ITC) was used to determine the critical aggregation concentration (CAC) and the thermodynamic parameters at 37° C. associated with aggregate formation for each double-tailed amphiphile for the M-P and M-1 series, as shown in Table 1. A Nano ITC was used to measure the heat change associated with the deaggregation of amphiphiles via power compensation. […] In FIG. 6, inset, CAC is determined by calculating the first derivative the heat curve. […]
Response field label takes satisfied when ΔHagg is strictly below -7 kcal/mol and not satisfied in all other cases.

Please review the entries below; each comes with its answer.
CCCCCCCCCCCCCCCCCCCCCC[N+](C)(C)Cc1cc(C[N+](C)(C)C)cc(C[N+](C)(C)C)c1.[Br-].[Br-].[Br-] | satisfied
CCCCCCCCCCCCCCCCCCCC[N+](C)(C)Cc1cc(C[N+](C)(C)C)cc(C[N+](C)(C)C)c1.[Br-].[Br-].[Br-] | not satisfied
CCCCCCCCCCCCCCCC[N+](C)(C)Cc1cc(C[N+](C)(C)C)cc(C[N+](C)(C)C)c1.[Br-].[Br-].[Br-] | not satisfied
CCCCCCCCCCCCCCCCCC[N+](C)(C)Cc1cc(C[N+](C)(C)C)cc(C[N+](C)(C)C)c1.[Br-].[Br-].[Br-] | not satisfied
CCCCCCCCCCCCCC[N+](C)(C)Cc1cc(C[N+](C)(C)C)cc(C[N+](C)(C)CCCCCCCCCCCCCC)c1.[Br-].[Br-].[Br-] | satisfied

Next item in the queue.
# TODO verify ΔHagg < -7 kcal/mol strictly for this compound: CCCCCCCCCCCCCC[N+](C)(C)Cc1cc(C[N+](C)(C)C)cc(C[N+](C)(C)C)c1.[Br-].[Br-].[Br-]
not satisfied

----------
# MEASUREMENT_DESCRIPTION: Isothermal titration calorimetry: critical aggregation concentration and thermodynamics of aggregation
# Type: physicochemical
# TEST_PARAMETERS: ITC, 37° C.; single-tailed M-1,1,n series
MEASURED_ATTRIBUTE: CAC (mM)
Express it in mM; write the number only.

CCCCCCCCCCCCCCCCCCCC[N+](C)(C)Cc1cc(C[N+](C)(C)C)cc(C[N+](C)(C)C)c1.[Br-].[Br-].[Br-] [Compound S7] | 2.0
CCCCCCCCCCCCCCCCCCCCCC[N+](C)(C)Cc1cc(C[N+](C)(C)C)cc(C[N+](C)(C)C)c1.[Br-].[Br-].[Br-] [Compound S8] | 0.99
CCCCCCCCCCCCCC[N+](C)(C)Cc1cc(C[N+](C)(C)C)cc(C[N+](C)(C)C)c1.[Br-].[Br-].[Br-] [Compound S4] | 21
CCCCCCCCCCCCCCCCCC[N+](C)(C)Cc1cc(C[N+](C)(C)C)cc(C[N+](C)(C)C)c1.[Br-].[Br-].[Br-] [Compound S6] | 5.0

As a next step, examine the molecule that follows.
Item under review: CCCCCCCCCCCCCCCC[N+](C)(C)Cc1cc(C[N+](C)(C)C)cc(C[N+](C)(C)C)c1.[Br-].[Br-].[Br-] [Compound S5] . Reported CAC?
9.2
